# maps each entry to its IC50
System: CAL‐27 (oral carcinoma)
test-details: Resazurin cell viability assay, CAL‐27
Format: cell-based
measurement-context: Homo sapiens, CAL-27; 72 h, mean ± SD, n = 3; read-out: IC50 (nM) CAL‐27
Only the number, expressed in nM, is required.

Reference set, count: 8
COc1ccc2c(C(=O)c3cc(OC)c(OC)c(OC)c3)c[nH]c2c1 [BPR0L075, reference compound]; 2
COc1ccc(N(C)c2nc(C)nc3ccccc23)cc1 [Verubulin, reference compound]; 2
CCCc1cn2cc(OC)ccc2c1C(=O)c1cc(OC)c(OC)c(OC)c1; 47
COc1ccc2c(C(=O)c3cc(OC)c(OC)c(OC)c3)ccn2c1; 105
COc1ccc2c(C(=O)c3cc(OC)c(OC)c(OC)c3)c(-c3ccc(C)cc3)cn2c1; 300
COc1ccc2c(C(=O)c3cc(OC)c(OC)c(OC)c3)c(C(F)(F)F)cn2c1; 75
COc1ccc2c(C(=O)c3ccc(Cl)c(Cl)c3)ccn2c1; 12400
CC(=O)O[C@H]1C(=O)[C@@]2(C)[C@H]([C@H](OC(=O)c3ccccc3)[C@]3(O)C[C@H](OC(=O)[C@H](O)[C@@H](NC(=O)c4ccccc4)c4ccccc4)C(C)=C1C3(C)C)[C@]1(OC(C)=O)CO[C@@H]1C[C@@H]2O [Paclitaxel, reference compound]; 3

# ---- query compound ----
input: Provide only the value of recorded IC50 for COc1ccc2c(C(=O)c3cc(OC)c(OC)c(OC)c3)c(C)cn2c1
output: 325

Hello, the source for this data is paper PMC12673918, in case you need it.
